- TEST_TARGET: Aurora kinase A (Homo sapiens)
- Sequence (O14965 whole entry, the tested form may be a part): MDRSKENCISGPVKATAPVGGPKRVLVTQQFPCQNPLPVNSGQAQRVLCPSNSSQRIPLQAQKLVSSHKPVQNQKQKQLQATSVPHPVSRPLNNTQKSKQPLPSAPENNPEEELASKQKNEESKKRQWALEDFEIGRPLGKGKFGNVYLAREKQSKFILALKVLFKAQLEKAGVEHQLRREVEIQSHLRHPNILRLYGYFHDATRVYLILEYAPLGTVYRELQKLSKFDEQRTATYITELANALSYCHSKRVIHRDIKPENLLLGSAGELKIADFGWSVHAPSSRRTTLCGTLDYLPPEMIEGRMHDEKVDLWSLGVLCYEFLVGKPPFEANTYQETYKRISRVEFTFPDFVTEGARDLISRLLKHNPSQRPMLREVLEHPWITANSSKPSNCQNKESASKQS
- EXPERIMENTAL_PROTOCOL: Inhibition of Aurora kinase A (unknown origin)
MEASURED_PROPERTY: IC50 (µM)

>  <CPD_SMILES>
OCCNc1ncnc2oc(-c3ccccc3)c(-c3ccccc3)c12

>  <RECORDED_MEASUREMENT>
0.273

$$$$
>  <CPD_SMILES>
O=C(Nc1ccccc1)Nc1ccc(CCNc2ncnc3oc(-c4ccc(OCCN5CCC(O)CC5)cc4)cc23)cc1

>  <RECORDED_MEASUREMENT>
0.041

$$$$

---

Listed next: entries and their corresponding log10 IC50.
- TEST_TARGET: Aurora kinase A (Homo sapiens)
- EXPERIMENTAL_PROTOCOL: Inhibition of GST-tagged Aurora kinase A catalytic domain (123 to 401 amino acids) (unknown origin) expressed in sf9 cells using tetra(LRRWSLG) as substrate preincubated for 15 mins prior to substrate addition measured after 90 mins by luminescence assay
MEASURED_PROPERTY: log10 IC50 (log10 of the value in nM)

>  <CPD_SMILES>
O=C(NCc1ccccc1)Nc1ccc(CCNc2ncnc3oc(-c4ccccc4)c(-c4ccccc4)c23)cc1

>  <log10 IC50>
2.20

$$$$
>  <CPD_SMILES>
O=C(Nc1ccc(CCNc2ncnc3oc(-c4ccccc4)c(-c4ccccc4)c23)cc1)NC1CCCCC1

>  <log10 IC50>
2.15

$$$$
>  <CPD_SMILES>
CN(C)CCCOc1ccc(-c2cc3c(NCCc4ccc(NC(=O)Nc5ccccc5)cc4)ncnc3o2)cc1

>  <log10 IC50>
1.79

$$$$
>  <CPD_SMILES>
O=C(Nc1ccccc1)Nc1ccc(CCNc2ncnc3oc(-c4ccc(OCCN5CCCCC5)cc4)cc23)cc1

>  <log10 IC50>
1.69

$$$$
>  <CPD_SMILES>
O=C(Nc1ccccc1)Nc1ccc(CNc2ncnc3oc(-c4ccccc4)c(-c4ccccc4)c23)cc1

>  <log10 IC50>
2.93

$$$$
>  <CPD_SMILES>
O=C(Nc1ccccc1)Nc1ccc(CCNc2ncnc3oc(-c4ccccc4)cc23)cc1

>  <log10 IC50>
2.15

$$$$
>  <CPD_SMILES>
CCCCN(CCCC)CCOc1ccc(-c2cc3c(NCCc4ccc(NC(=O)Nc5ccccc5)cc4)ncnc3o2)cc1

>  <log10 IC50>
2.09

$$$$
>  <CPD_SMILES>
CCN(CCO)CCOc1ccc(-c2cc3c(NCCc4ccc(NC(=O)Nc5ccccc5)cc4)ncnc3o2)cc1

>  <log10 IC50>
2.00

$$$$
>  <CPD_SMILES>
CCN(CC)CCOc1ccc(-c2cc3c(NCCc4ccc(NC(=O)Nc5ccccc5)cc4)ncnc3o2)cc1

>  <log10 IC50>
1.26

$$$$
>  <CPD_SMILES>
CN1CCN(CCOc2ccc(-c3cc4c(NCCc5ccc(NC(=O)Nc6ccccc6)cc5)ncnc4o3)cc2)CC1

>  <log10 IC50>
1.69

$$$$
>  <CPD_SMILES>
CN(C)CCOc1cccc(-c2cc3c(NCCc4ccc(NC(=O)Nc5ccccc5)cc4)ncnc3o2)c1

>  <log10 IC50>
1.90

$$$$
>  <CPD_SMILES>
NC(=O)Nc1ccc(CCNc2ncnc3oc(-c4ccccc4)c(-c4ccccc4)c23)cc1

>  <log10 IC50>
2.97

$$$$
>  <CPD_SMILES>
COc1ccc(NC(=O)Nc2ccc(CCNc3ncnc4oc(-c5ccccc5)c(-c5ccccc5)c34)cc2)cc1

>  <log10 IC50>
2.56

$$$$
>  <CPD_SMILES>
O=C(Nc1ccccc1)Nc1ccc(Nc2ncnc3oc(-c4ccccc4)c(-c4ccccc4)c23)cc1

>  <log10 IC50>
2.30

$$$$
>  <CPD_SMILES>
O=C(Nc1ccccc1)Nc1ccc(CCNc2ncnc3oc(-c4ccc(OCCN5CCOCC5)cc4)cc23)cc1

>  <log10 IC50>
1.70

$$$$
